These measurements were taken from ChEMBL document CHEMBL3259562.

# experimental.target: UniProtKB P41231
# Sequence (P41231 whole entry): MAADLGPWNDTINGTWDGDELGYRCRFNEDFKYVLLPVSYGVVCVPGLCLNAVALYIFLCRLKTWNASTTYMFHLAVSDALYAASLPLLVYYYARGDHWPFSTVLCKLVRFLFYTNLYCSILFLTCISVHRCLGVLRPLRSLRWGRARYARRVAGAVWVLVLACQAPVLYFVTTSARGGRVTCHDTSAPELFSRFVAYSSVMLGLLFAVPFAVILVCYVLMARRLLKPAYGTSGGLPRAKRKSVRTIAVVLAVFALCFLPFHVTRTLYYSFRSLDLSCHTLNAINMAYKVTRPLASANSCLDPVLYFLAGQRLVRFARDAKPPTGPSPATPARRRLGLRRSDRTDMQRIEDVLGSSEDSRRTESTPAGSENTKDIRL
# experiment: Agonist activity at human P2Y2 receptor expressed in human 1321N1 cells assessed as stimulation of [3H]inositol phosphate accumulation by liquid scintillation counting
# Format: functional, cell-based
Listed here: items and their measured pEC50.
pEC50 (log units): -log10 of the concentration in mol/L.

- O=C(O)CCCO/N=c1/ccn([C@@H]2O[C@H](COP(=O)(O)OP(=O)(O)OP(=O)(O)O)[C@@H](O)[C@H]2O)c(=O)[nH]1: 6.52
- O=c1[nH]/c(=N\OCCCc2cccnc2)ccn1[C@@H]1O[C@H](COP(=O)(O)OP(=O)(O)OP(=O)(O)O)[C@@H](O)[C@H]1O: 6.49

Would you kindly look at the next entry?
Prompt line: Which measured pEC50 value corresponds to O=c1[nH]/c(=N\OCCCc2cccc(I)c2)ccn1[C@@H]1O[C@H](COP(=O)(O)OP(=O)(O)OP(=O)(O)O)[C@@H](O)[C@H]1O ?
Response line: 6.49
